Assay: Chemical stability assessed as chemical hydrolysis half life in RPMI-1640 culture medium by HPLC analysis
Assay type: physicochemical
parameterMeasured: log10 of half-life (log10 of the value in h)

compound="Nc1ncnc2c1ncn2[C@H]1CC[C@@H](COP(=O)(Oc2ccccc2)Oc2cccnc2)O1 (stereo partly drawn)" parametermeasured="log10 of half-life" endpointresult=1.95
compound=Cc1ncccc1OP(=O)(OC[C@H]1O[C@@H](n2cc(C)c(=O)[nH]c2=O)C[C@@H]1N=[N+]=[N-])Oc1cccnc1C parametermeasured="log10 of half-life" endpointresult=1.24
compound="Cc1cn([C@H]2C[C@H](N=[N+]=[N-])[C@@H](COP(=O)(Oc3ccccc3)Oc3cccnc3Cl)O2)c(=O)[nH]c1=O (stereo partly drawn)" parametermeasured="log10 of half-life" endpointresult=1.21
compound="Cc1cn([C@H]2C[C@H](N=[N+]=[N-])[C@@H](COP(=O)(Oc3ccccc3)Oc3cncc(Cl)c3)O2)c(=O)[nH]c1=O (stereo partly drawn)" parametermeasured="log10 of half-life" endpointresult=1.40
compound="O=c1ccn([C@H]2CC[C@@H](COP(=O)(Oc3ccncc3)Oc3cccnc3)O2)c(=O)[nH]1 (stereo partly drawn)" parametermeasured="log10 of half-life" endpointresult=0.85
compound="Cc1cn([C@H]2C[C@H](N=[N+]=[N-])[C@@H](COP(=O)(Oc3ccc(C#N)cc3)Oc3cccnc3)O2)c(=O)[nH]c1=O (stereo partly drawn)" parametermeasured="log10 of half-life" endpointresult=0.46
compound="Cc1cn([C@H]2C[C@H](N=[N+]=[N-])[C@@H](COP(=O)(Oc3ccc(Cl)cc3)Oc3cccnc3)O2)c(=O)[nH]c1=O (stereo partly drawn)" parametermeasured="log10 of half-life" endpointresult=1.74
compound="Cc1ncccc1OP(=O)(OC[C@H]1O[C@@H](n2cc(C)c(=O)[nH]c2=O)C[C@@H]1N=[N+]=[N-])Oc1ccccc1 (stereo partly drawn)" parametermeasured="log10 of half-life" endpointresult=1.92
compound="O=c1ccn([C@H]2CC[C@@H](COP(=O)(Oc3ccccc3)Oc3ccncc3)O2)c(=O)[nH]1 (stereo partly drawn)" parametermeasured="log10 of half-life" endpointresult=1.43
compound=Cc1cn([C@H]2C[C@H](N=[N+]=[N-])[C@@H](COP(=O)(Oc3cccnc3)Oc3cccnc3)O2)c(=O)[nH]c1=O parametermeasured="log10 of half-life" endpointresult=0.69
compound="Cc1cn([C@H]2C[C@H](N=[N+]=[N-])[C@@H](COP(=O)(Oc3cccnc3)Oc3ccc(Cl)cc3Cl)O2)c(=O)[nH]c1=O (stereo partly drawn)" parametermeasured="log10 of half-life" endpointresult=0.82
compound="Cc1cn([C@H]2C[C@H](N=[N+]=[N-])[C@@H](COP(=O)(Oc3ccccc3)Oc3cccnc3)O2)c(=O)[nH]c1=O (stereo partly drawn)" parametermeasured="log10 of half-life" endpointresult=1.70
compound="Cc1cn([C@H]2C[C@H](N=[N+]=[N-])[C@@H](COP(=O)(Oc3ccncc3)Oc3cccnc3)O2)c(=O)[nH]c1=O (stereo partly drawn)" parametermeasured="log10 of half-life" endpointresult=0.93
compound="O=c1ccn([C@H]2CC[C@@H](COP(=O)(Oc3ccccc3)Oc3cccnc3)O2)c(=O)[nH]1 (stereo partly drawn)" parametermeasured="log10 of half-life" endpointresult=1.81
compound="Cc1ccc(OP(=O)(OC[C@H]2O[C@@H](n3cc(C)c(=O)[nH]c3=O)C[C@@H]2N=[N+]=[N-])Oc2ccccc2)cn1 (stereo partly drawn)" parametermeasured="log10 of half-life" endpointresult=1.65
compound=Cc1ccc(OP(=O)(OC[C@H]2O[C@@H](n3cc(C)c(=O)[nH]c3=O)C[C@@H]2N=[N+]=[N-])Oc2ccc(C)nc2)cn1 parametermeasured="log10 of half-life" endpointresult=1.33
compound="Cc1cn([C@H]2C[C@H](N=[N+]=[N-])[C@@H](COP(=O)(Oc3ccccc3)Oc3ccncc3)O2)c(=O)[nH]c1=O (stereo partly drawn)" parametermeasured="log10 of half-life" endpointresult=1.11
compound="Cc1cn([C@H]2C[C@H](N=[N+]=[N-])[C@@H](COP(=O)(Oc3ccc(Br)cc3)Oc3cccnc3)O2)c(=O)[nH]c1=O (stereo partly drawn)" parametermeasured="log10 of half-life" endpointresult=1.65
